- target.system: HLA-A*02:01 (Homo sapiens, UniProt P04439, D140Y/D185E/D98H/E176V/E277Q/G131W/G231S/I119V/I121R/I166T/I218V/L300P/L318F/N151K/N90K/P208A/P217A/Q86G/Q94H/R138H/R169H/T345S)
- experiment.description: MHC binding assay (UV-ligand exchange, ELISA, peptide exchange yield)
- measurement.setup: binding of HLA-class I restricted peptides to HLA-A*02:01
property.name: Peptide exchange (MHC class I binding score, peptide exchange yield)

Example substances with recorded Peptide exchange (MHC class I binding score, peptide exchange yield):
247 (VLLPNDLLEKV; listed as Homo sapiens) [compound 247]	″+++″ (≥50% = +++)
114 (SLVGEPILQNV; listed as Homo sapiens) [compound 114]	″++″ (≥20% = ++)
547 (TLDITPHTV; listed as Homo sapiens) [compound 547]	″+++″ (≥50% = +++)
511 (FLDPYCSASV; listed as Homo sapiens) [compound 511]	″++″ (≥20% = ++)
233 (VLSETLYEL; listed as Homo sapiens) [compound 233]	″++″ (≥20% = ++)

// moving on: another record for Peptide exchange (MHC class I binding score, peptide exchange yield)
IN: Given 85 (KMSELRVTL; listed as Homo sapiens) [compound 85] , state its recorded Peptide exchange (MHC class I binding score, peptide exchange yield).
OUT: ″+++″ (≥50% = +++)

The reported numbers originate from patent US10227388B2.
